systemUnderTest: UniProtKB P35462
Sequence (P35462 whole entry): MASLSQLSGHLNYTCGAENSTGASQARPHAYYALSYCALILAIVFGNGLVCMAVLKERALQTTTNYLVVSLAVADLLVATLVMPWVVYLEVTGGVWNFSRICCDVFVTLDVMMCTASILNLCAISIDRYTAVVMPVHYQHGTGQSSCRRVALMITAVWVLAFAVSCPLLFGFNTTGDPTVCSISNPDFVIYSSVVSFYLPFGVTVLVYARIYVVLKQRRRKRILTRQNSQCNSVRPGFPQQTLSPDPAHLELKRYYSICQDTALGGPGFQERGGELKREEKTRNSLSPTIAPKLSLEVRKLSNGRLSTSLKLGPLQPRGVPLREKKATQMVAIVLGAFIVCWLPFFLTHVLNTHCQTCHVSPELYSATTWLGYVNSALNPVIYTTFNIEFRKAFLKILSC
protocolDetails: Human D3 receptor binding assay ([^3H]-7-OH-DPAT)
runConditions: CHO cells expressing hD3R, geometric mean of 2-5 determinations unless marked b (single determination), read-out: hD3 in CHO cells Ki
pKi: −log10 of the molar value.
pKi values for the molecules below.
measuredQuantity: pKi

>>> print(df.to_string())
                             smilesnotation  measuredquantity  reportedvalue
0  CCN1CCc2cc(NS(=O)(=O)c3ccc4c(c3)CCC(C)(C)O4)c(OC)nc2CC1               pKi           9.32
1  Cc1ccc(S(=O)(=O)Nc2cc3c(nc2C(F)(F)F)CCN(C)CC3)cc1               pKi           6.15
2  CCN1CCc2cc(NS(=O)(=O)c3ccc(C4(F)CCCC4)nc3)c(OC)nc2CC1               pKi           8.20
3  COc1nc2c(cc1NS(=O)(=O)c1ccc([C@H]3C[C@@H](OC)C3)cc1)CCN(C)CC2               pKi           8.92

---

systemUnderTest: human dopamine D2 receptor (hD2R) (Homo sapiens, UniProt P14416)
Sequence (P14416 whole entry): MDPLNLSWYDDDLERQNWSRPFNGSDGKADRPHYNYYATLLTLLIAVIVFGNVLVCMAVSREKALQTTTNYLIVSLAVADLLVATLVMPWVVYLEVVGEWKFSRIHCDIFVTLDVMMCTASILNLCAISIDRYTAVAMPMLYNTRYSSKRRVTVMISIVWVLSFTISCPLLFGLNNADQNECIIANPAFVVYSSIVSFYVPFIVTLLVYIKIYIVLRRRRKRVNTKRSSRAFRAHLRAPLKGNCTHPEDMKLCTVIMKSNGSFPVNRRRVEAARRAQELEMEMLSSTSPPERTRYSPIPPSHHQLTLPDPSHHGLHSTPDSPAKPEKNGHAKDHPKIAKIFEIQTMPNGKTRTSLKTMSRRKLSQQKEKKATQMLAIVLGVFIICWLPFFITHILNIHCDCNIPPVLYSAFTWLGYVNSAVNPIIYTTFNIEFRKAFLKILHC
protocolDetails: Human D2 receptor binding assay ([^3H]-Spiperone)
runConditions: CHO cells expressing hD2R, geometric mean of 2-5 determinations unless marked b (single determination)
measuredQuantity: Ki (nM)

>>> df
                                   compound  readoutqualifier  reportedvalue
0  COc1nc2c(cc1NS(=O)(=O)c1ccc([C@]3(F)C[C@H](OCCF)C3)cc1)CCN(C)CC2 [Example 133]                 =            428
1  COc1nc2c(cc1NS(=O)(=O)c1ccc([C@@H]3CCCO3)cc1)CCN(C)CC2 [Example 98]                 =            488
2  COc1nc2c(cc1NS(=O)(=O)c1ccc(OC3CCC3)nc1)CCN(C)CC2 [Example 17]                 =           90.2
3  COc1nc2c(cc1NS(=O)(=O)c1cnc(OC3CCCC3)c(C)c1)CCN(C)CC2 [Example 124]                 =           3.89
4  CCN1CCc2cc(NS(=O)(=O)c3ccc(C4CCCCO4)cc3)c(OC)nc2CC1 (single isomer, unassigned) [Example 74]                 =            202
5  CCN1CCc2cc(NS(=O)(=O)c3ccc(C4(F)CCOCC4)cc3)c(OC)nc2CC1 [Example 75]                 =            262
6  COc1nc2c(cc1NS(=O)(=O)c1ccc([C@H]3CCCCO3)cc1)CCN(C)CC2 [Example 7]                 =           65.5
7  CCOc1ccc(S(=O)(=O)Nc2cc3c(nc2C)CCN(CC)CC3)cc1 [Example 137]                 >           4190

---

This section presents compounds with their documented Ki values.
systemUnderTest: human dopamine D2 receptor (hD2R) (Homo sapiens, UniProt P14416)
protocolDetails: Human D2 receptor binding assay ([^3H]-Spiperone)
runConditions: CHO cells expressing hD2R, geometric mean of 2-5 determinations unless marked b (single determination)
measuredQuantity: Ki (nM)

                                   compound  measuredquantity  readoutqualifier  reportedvalue
0  COc1nc2c(cc1NS(=O)(=O)c1ccc([C@]3(F)C[C@@H](C)C3)nc1)CCN(C)CC2                Ki                 =            542
1  COc1nc2c(cc1NS(=O)(=O)c1ccc([C@H]3C[C@H](OC)C3)cc1)CCN(C)CC2                Ki                 =            203
2  COc1nc2c(cc1NS(=O)(=O)c1ccc(C3CC(F)(F)CCO3)cc1)CCN(C)CC2 (single isomer, unassigned) [Example 42]                Ki                 =            402
3  CCN1CCc2cc(NS(=O)(=O)c3ccc(Cl)cc3)c(C)nc2CC1                Ki                 >           4190
